Entries and their ED50 values follow.
# Test system: female white mice
# experimental-details: animal or person
# particulars: Mus musculus, po, read-out: Muscle Tone ED50, Table III; oral, mice
Structures can show the parent of a compound that is named as a salt.

compound: CN1CC2c3cc(Cl)ccc3C3CC2(C1)c1ccccc13.Cl (stereo not drawn)
ED50, mg/kg: 20
--
compound: CC(=NO)c1ccc2c(c1)[C@]13C[C@H]2c2ccccc2[C@H]1CN(CC1CCCC1)C3 (relative stereo) [Example 71, Hydrochloride]
ED50, mg/kg: 36
--
compound: ON=Cc1ccc2c(c1)[C@]13C[C@H]2c2ccccc2[C@H]1CN(CC1CCCC1)C3 (relative stereo) [Example 83, Hydrochloride]
ED50, mg/kg: 36

###

# Tested on: female white mice
# experimental-details: animal or person
# particulars: Mus musculus, po, read-out: Muscle Tone ED50, Table 1; oral, mice
Mark y only for ED50 values smaller than 20 mg/kg; exact matches and larger values are n.

compound: C=C1CC(CN2CC3c4ccccc4C4CC3(C2)c2ccccc24)C1 (stereo not shown)
study-target: female white mice
class-name: y

compound: CC1CCCC1CN1C[C@@H]2c3ccccc3[C@@H]3C[C@@]2(C1)c1ccccc13 (stereo partly shown)
study-target: female white mice
class-name: n

compound: [O-][N+]1(CC2CCCC2)CC2c3ccccc3C3CC2(C1)c1ccccc13 (stereo not shown) [Cyclopentylmethyl-N-oxide]
study-target: female white mice
class-name: y

compound: c1ccc2c(c1)C1CC3(CN(CC4CC4)CC23)c2ccccc21 (stereo not shown)
study-target: female white mice
class-name: y

compound: c1ccc2c(c1)C1CC3(CN(CC4CCCCC4)CC23)c2ccccc21 (stereo not shown)
study-target: female white mice
class-name: y

compound: CCN1CC2c3ccccc3C3CC2(C1)c1ccccc13 (stereo not shown)
study-target: female white mice
class-name: n

compound: C1=C(CN2CC3c4ccccc4C4CC3(C2)c2ccccc24)CCCC1 (stereo not shown)
study-target: female white mice
class-name: y

compound: C1=C[C@@H]2C[C@H]1C[C@@H]2CN1C[C@@H]2c3ccccc3[C@@H]3C[C@@]2(C1)c1ccccc13 (relative stereo)
study-target: female white mice
class-name: n

compound: CCCCCN1C[C@@H]2c3ccccc3[C@@H]3C[C@@]2(C1)c1ccccc13 (relative stereo)
study-target: female white mice
class-name: y

###

# Test system: female white mice
# experimental-details: animal or person
# particulars: Mus musculus, po, read-out: Muscle Tone ED50, Table 1; oral, mice
metric-name: log10 ED50 (log10 of the value in mg/kg)

compound: CC(C1CCCC1)N1C[C@@H]2c3ccccc3[C@@H]3C[C@@]2(C1)c1ccccc13 (some centres unmarked)
log10 ED50: 1.56
--
compound: c1ccc2c(c1)[C@@H]1C[C@@]3(CN(CC4CCC4)C[C@H]23)c2ccccc21 (relative stereo)
log10 ED50: 1.08
--
compound: C[N+]1([O-])C[C@@H]2c3ccccc3[C@@H]3C[C@@]2(C1)c1ccccc13 (relative stereo) [Methyl-N-oxide]
log10 ED50: 2.00
--
compound: C1=CCCC(CN2C[C@@H]3c4ccccc4[C@@H]4C[C@@]3(C2)c2ccccc24)CC1 (relative stereo)
log10 ED50: 0.85
--
compound: c1ccc2c(c1)C1CC3(CN(CC4CCCC4)CC23)c2ccccc21 (centres unmarked)
log10 ED50: 0.85
--
compound: CCCCN1CC2c3ccccc3C3CC2(C1)c1ccccc13 (centres unmarked)
log10 ED50: 1.08
--
compound: C1=CC(CCN2CC3c4ccccc4C4CC3(C2)c2ccccc24)CC1 (centres unmarked)
log10 ED50: 1.57
--
compound: CC(C)(C)N1C[C@@H]2c3ccccc3[C@@H]3C[C@@]2(C1)c1ccccc13 (relative stereo)
log10 ED50: 2.00
--
compound: c1ccc2c(c1)[C@@H]1C[C@@]3(CN(CC4C5CC6CC(C5)CC4C6)C[C@H]23)c2ccccc21 (relative stereo)
log10 ED50: 2.00
--
compound: CCOC(=O)CCCN1CC2c3ccccc3C3CC2(C1)c1ccccc13 (centres unmarked)
log10 ED50: 2.30
--
compound: c1ccc2c(c1)[C@@H]1C[C@@]3(CN(C[C@H]4C[C@H]5CC[C@@H]4C5)C[C@H]23)c2ccccc21 (relative stereo)
log10 ED50: 1.78
--
compound: c1ccc2c(c1)C1CC3(CN(CCCCC4CCCCC4)CC23)c2ccccc21 (centres unmarked)
log10 ED50: 1.38
--
compound: C=CCN1CC2c3ccccc3C3CC2(C1)c1ccccc13 (centres unmarked)
log10 ED50: 0.51
